Recorded EC150 (the concentration of the compound showing a relative enzyme activity of 150%), one value per entry.
Target: SIRT6 enzyme (Homo sapiens)
Sequence (Q8N6T7 whole entry, species assumed): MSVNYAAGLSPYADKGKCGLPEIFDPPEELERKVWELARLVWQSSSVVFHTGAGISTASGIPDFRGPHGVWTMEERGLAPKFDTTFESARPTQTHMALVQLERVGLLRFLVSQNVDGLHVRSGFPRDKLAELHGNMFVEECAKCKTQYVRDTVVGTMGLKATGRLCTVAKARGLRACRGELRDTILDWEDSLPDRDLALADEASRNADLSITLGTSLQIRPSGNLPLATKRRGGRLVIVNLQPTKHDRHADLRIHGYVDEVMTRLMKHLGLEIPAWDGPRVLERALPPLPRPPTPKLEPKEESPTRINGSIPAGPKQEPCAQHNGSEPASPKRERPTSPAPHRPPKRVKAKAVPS
Test: Measurement of deacetylation activity (SIRT6, AlphaLISA, H3K9(Ac) peptide)
Assay type: biochemical
Details: SIRT6 25 ng/mL, H3K9(Ac) biotin peptide 2 nM, NAD 10 μM, room temperature 30 minutes, duplicate
quantity_kind: EC150 (the concentration of the compound showing a relative enzyme activity of 150%) (μm)

1. CC(C)(O)CNC(=O)Nc1nc2c(s1)CN(c1nc(C3CCC(F)(F)C3)no1)CC2 (centres unmarked) : 1.6
2. CNC(=O)Nc1nc2c(s1)C1CN(C(C)=O)CC(C2)N1c1ncc(-c2cccc(Cl)c2)o1 (centres unmarked) : 0.36
3. CC(=O)N1CC2Cc3nc(NC(=O)N[C@@H]4CCOC4)sc3C(C1)N2c1nc(-c2ccc(F)cc2)no1 (some centres unmarked) : 0.16
4. COc1cccc(-c2cnc(N3[C@@H]4COC[C@H]3c3sc(NC(=O)N[C@H]5CC[C@@H](O)CC5)nc3C4)o2)n1 : 0.64
5. CNC(=O)Nc1nc2c(s1)CN(c1nc(C34CCC(F)(CC3)C4)no1)CC2 : 0.7
6. C[C@H](CO)NC(=O)Nc1nc2c(s1)[C@@H]1COC[C@H](C2)N1c1nc2cc(Cl)ccc2o1 : 0.44
7. CNC(=O)Nc1nc2c(s1)C1CN(C(=O)OC)CC(C2)N1c1nc(C2CCC(F)(F)CC2)no1 (centres unmarked) : 0.39
8. O=C(Nc1nc2c(s1)[C@@H]1COC[C@H](C2)N1c1ncc(-c2cccc(OC(F)F)c2)o1)N[C@@H]1CCOC1 : 0.4
9. [2H]C([2H])([2H])Oc1ccc2oc(N3[C@@H]4COC[C@H]3c3sc(NC(=O)N[C@H](C)CO)nc3C4)nc2c1 : 1.3
10. C[C@H](CO)NC(=O)Nc1nc2c(s1)CN(c1nc(C3CCC(F)(F)CC3)no1)CC2 : 1.5
11. C[C@@H](CO)NC(=O)Nc1nc2c(s1)[C@@H]1COC[C@H](C2)N1c1ncc(-c2cccc(C(F)F)c2)o1 : 0.35
12. CC(C)(O)CNC(=O)Nc1nc2c(s1)[C@@H]1COC[C@H](C2)N1c1ncc(-c2cccc(OC(F)F)c2)o1 : 0.83
13. CNC(=O)Nc1nc2c(s1)C1CN(C(=O)OC)CC(C2)N1c1nc(C23CCC(F)(CC2)C3)no1 (centres unmarked) : 1.4
14. CNC(=O)Nc1nc2c(s1)CN(c1nnc(-c3ccc(F)c(C)c3)o1)CC2 : 1.2
15. O=C(NCc1ccnc(O)c1)Nc1nc2c(s1)[C@@H]1COC[C@H](C2)N1c1ncc(-c2cccc(OC(F)F)n2)o1 : 0.28
16. CNC(=O)Nc1nc2c(s1)CN(c1nc(C3CCC(F)(F)CC3)no1)CC2 : 1.7
17. CNC(=O)Nc1nc2c(s1)C1COCC(C2)N1c1ncc(-c2cccc(C(=O)C3CC3)c2F)o1 (centres unmarked) : 3.1
18. O=C(NC[C@H]1COCCO1)Nc1nc2c(s1)[C@@H]1COC[C@H](C2)N1c1nc(-c2ccc(F)cc2)no1 : 0.69
19. CNC(=O)Nc1nc2c(s1)[C@@H]1CC[C@H](C2)N1c1nc(-c2ccc(F)cc2)no1 (relative stereo) : 1.0
20. CNC(=O)Nc1nc2c(s1)C1CN(C(C)=O)CC(C2)N1c1nc(-c2cccc(F)c2)no1 (centres unmarked) : 0.46
21. CC(C)(O)CNC(=O)Nc1nc2c(s1)CN(c1nc(C3(C(F)(F)F)CC3)no1)CC2 : 3.5
22. CN(C)c1ccc2oc(N3[C@@H]4COC[C@H]3c3sc(NC(=O)NCC(C)(C)O)nc3C4)nc2c1 : 2.5
23. CNC(=O)Nc1nc2c(s1)C1COCC(C2)N1c1nnc(-c2cccc(C(F)(F)F)c2)o1 (centres unmarked) : 3.7
24. C[C@H](CO)NC(=O)Nc1nc2c(s1)[C@@H]1COC[C@H](C2)N1c1ncc(-c2cccc(C(F)F)c2)o1 : 0.34
25. C[C@H](CO)NC(=O)Nc1nc2c(s1)[C@@H]1COC[C@H](C2)N1c1nc2cc(F)ccc2o1 : 2.5
26. CNC(=O)Nc1nc2c(s1)[C@@H]1CCC[C@H](C2)N1c1nc(-c2ccc(F)cc2)no1 (relative stereo) : 1.4
27. COc1cccc(-c2noc(N3CCc4nc(NC(=O)NC5CCOCC5)sc4C3)n2)c1 : 2.4
28. C[C@@H](O)CNC(=O)Nc1nc2c(s1)[C@@H]1COC[C@H](C2)N1c1ncc(-c2cccc(C(F)F)c2)o1 : 0.36
29. O=C(Nc1nc2c(s1)[C@@H]1COC[C@H](C2)N1c1cc(-c2ccc(F)cc2)on1)N[C@@H]1CCOC1 : 0.51

Source of measurements: patent US11981686B2
